Biological target: cIAP-1 BIR-3 (Homo sapiens, UniProt Q13490)
Sequence (Q13490 266-352 limits assumed): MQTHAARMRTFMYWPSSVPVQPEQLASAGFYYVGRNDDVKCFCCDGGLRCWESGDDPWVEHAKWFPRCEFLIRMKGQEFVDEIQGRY
Test: Fluorescence polarization binding affinity to cIAP-1 BIR-3 (competition with AbuRPF-K(5-Fam)-NH2)
Details: 5 nM labeled peptide, 40 nM BIR3, 15 min at RT, pH 7.5; reported as ranges; read-out: KD (c-IAP-1 BIR3)
The reader will find reported Kd values listed item by item below.

compound: CN[C@@H](C)C(=O)N[C@H](C(=O)N1CC[C@@H]2[C@H]1[C@H](c1c[nH]c3cc(F)ccc13)CN2S(C)(=O)=O)C(C)(C)C [Example 49]
Kd: 100 to 1000 nM

compound: CN[C@@H](C)C(=O)N[C@@H](COC)C(=O)N1CC[C@@H]2[C@H]1[C@@H](c1c[nH]c3cc(F)ccc13)CN2C(C)=O [Example 64]
Kd: < 100 nM

compound: CN[C@@H](C)C(=O)N[C@H](C(=O)N1CC[C@@H]2[C@H]1[C@@H](c1c[nH]c3cc(F)ccc13)CN2Cc1ccccc1)[C@@H](C)OC [Example 100]
Kd: < 100 nM
